This section presents compounds with their documented TGI values.
# System: MALME-3M melanoma
# assay-remarks: NCI tumour cell line growth inhibition, 48 h
Supply the numeric figure in µM, leaving out any unit text.

Some entries whose results are on file:
| compound | TGI / µM |
| --- | --- |
| C=C(C)CCN[Si](c1ccccc1)(c1ccccc1)C(C)(C)C | 36.7 |
| CCCCCCCCCCCC(=O)OCC(C[As](=O)(O)O)OC(=O)CCCCCCCCCCC (centres undefined) | 6.49 |
| CC1=CCC(O)C=CC(C)C(O)C(C)C=C(C)C(=O)c2c(O)c(C)cc3c2C(=O)C(N)=C(NC(=O)/C=C\C=C/C=CC(C)C(O)CC1=O)C3=O (centres undefined) | 82.7 |

Value of measured TGI for the entry CCCCC(CC)COC(=O)C[N+](C)(C)CCOC(c1ccccc1)c1ccccc1 (centres undefined) : 3.09

----------
# System: NCI-H23 lung
# assay-remarks: NCI tumour cell line growth inhibition, 48 h
This section presents compounds with their documented TGI values.

| compound | target-under-test | TGI |
| --- | --- | --- |
| COc1cc2c3c(n(CCCN)c(=O)c2cc1OC)-c1ccc(C#N)cc1C3=O | NCI-H23 lung | 25.6 µM |
| O=C1C2C3C=C4c5ccccc5N(c5ccccc5)C4(C2C(=O)N1c1ccc([N+](=O)[O-])cc1)[C@H]1C(=O)N(c2ccc([N+](=O)[O-])cc2)C(=O)[C@@H]31 (some centres undefined) | NCI-H23 lung | > 100 µM |

Tested on NCI-H23 lung: CC1=[N+]([O-])c2ccccc2C(=O)C1=O . Observed TGI: > 100 µM

Tested on NCI-H23 lung: COc1ccc2[nH]c3c4[nH]c5ccc(OC)cc5c4c4c(c3c2c1)C(=O)NC4=O . Observed TGI: > 25 µM

----------
This section presents compounds with their documented TGI values.
# Test system: HCC-2998 colon
# assay-remarks: NCI tumour cell line growth inhibition, 48 h

Some entries whose results are on file:
| compound | TGI |
| --- | --- |
| COC(=O)C(Cc1nc2ccccc2[nH]c1=O)C(NO)C(=O)Nc1c(Cl)cc([N+](=O)[O-])cc1Cl (stereo unspecified) | > 100 µM |
| Cc1ccc([N+](=O)[O-])c2c(NCCC[N+](C)(C)[O-])c3ccccc3nc12 | 2.55 µM |
| Clc1ccc(-c2cc3nc4ccccc4nc3o2)cc1 | > 100 µM |
| CC1=[N+]([O-])c2ccccc2C(=O)C1=O | > 100 µM |
| CC1=C(/C=C/Cl)CC(Cl)C(C)(Cl)C1 (stereo unspecified) | > 100 µM |

Switching to the query record.
Tested on HCC-2998 colon: CCOC(C)O[C@H]1C(=O)OCC1(C)C (stereo partly specified) . Observed TGI: > 100 µM

----------
# System: HL-60(TB) leukemia
# assay-remarks: NCI tumour cell line growth inhibition, 48 h
This section presents molecules with their documented log10 TGI values.
Quick note: numbers are log10 of TGI, with µM as the unit.

| molecule | log10 TGI |
| --- | --- |
| Nc1ccccc1C#C/C=C\C#Cc1ccccc1N | 1.53 |
| O=C(Nc1nnc(-c2ccc(Cl)cc2)o1)C(SC(=S)N1CCOCC1)c1ccccc1 (centres undefined) | 1.41 |
| C[C@@H](c1ccccc1)n1c(N)c(C#N)c2ccc([N+](=O)[O-])cc2c1=O | 1.44 |

Tested on HL-60(TB) leukemia: C=C(C)[C@@H]1CC[C@]2(CO)CC[C@]3(C)[C@H](CC[C@@H]4[C@@]5(C)C=C(C#N)C(=O)C(C)(C)[C@@H]5CC[C@]43C)[C@@H]12 . Observed log10 TGI: 0.74

Tested on HL-60(TB) leukemia: CCOC(=O)CNC(=O)N(CC)C12CC3CC(CC(C3)C1)C2 . Observed log10 TGI: 2.50
